assay_info: Antiproliferative activity against human THLE-2 cells measured after 48 to 72 hrs by CCK-8 method

# molecule, IC50 (µM)
rows = [
    ("COc1ccc(CNc2nc(N(CCO)CCO)nc3c2ncn3C(C)C)cc1", 15),
]

* * *

assay_info: Antiproliferative activity against HEK293T cells measured after 48 to 72 hrs by CCK-8 method
study_conditions: human
pIC50: −log10 of the molar value.
property_label: pIC50

# molecule, property_label, val
data = [
    ("COc1ccc(CNc2nc(N(CCO)CCO)nc3c2ncn3C(C)C)cc1", "pIC50", 4.94),
]
